These data points were gathered from patent US20210338846A1.

tested on: PSMA+ PC-3 PiP and PSMA− PC-3 flu tumors; conditions: 1 h; co-injection 0.5 nmole YC-I-27
MEASURED QUANTITY: Biodistribution: Flu tumor (% injected dose/gram)

[[record]]
molecule = "O=C(O)CC[C@H](NC(=O)N[C@@H](CCCCN(Cc1ccc([125I])cc1)C(=O)CCCCNC(=O)CN1CCN(CC(=O)O)CCN(CC(=O)O)CCN(CC(=O)O)CC1)C(=O)O)C(=O)O [[^125I]VK-02-90]"
measured_quantity = "Biodistribution: Flu tumor"
unit_string = "% injected dose/gram"
recorded_number = 0.37

[[record]]
molecule = "O=C(O)CC[C@H](NC(=O)N[C@@H](CCC(=O)NCCc1ccc([125I])cc1)C(=O)O)C(=O)O [[^125I]HS-549]"
measured_quantity = "Biodistribution: Flu tumor"
unit_string = "% injected dose/gram"
recorded_number = 1.0

[[record]]
molecule = "O=C([O-])CN1CCN(CC(=O)[O-])CCN(CC(=O)NCCCCC(=O)N(CCCC[C@H](NC(=O)N[C@@H](CCC(=O)O)C(=O)O)C(=O)O)Cc2ccc([125I])cc2)CCN(CC(=O)[O-])CC1.[Lu+3] [[^125I]VK-02-90-Lu]"
measured_quantity = "Biodistribution: Flu tumor"
unit_string = "% injected dose/gram"
recorded_number = 1.0

[[record]]
molecule = "O=C([O-])CN1CCN(CC(=O)[O-])CCN(CC(=O)NCCCCC(=O)N(CCCC[C@H](NC(=O)N[C@@H](CCC(=O)O)C(=O)O)C(=O)O)Cc2ccc([211At])cc2)CCN(CC(=O)[O-])CC1.[Lu+3] [[^211At]VK-02-90-Lu]"
measured_quantity = "Biodistribution: Flu tumor"
unit_string = "% injected dose/gram"
recorded_number = 0.4


###

tested on: PSMA+ PC-3 PiP and PSMA− PC-3 flu tumors; conditions: 1 h; No CI
MEASURED QUANTITY: Biodistribution: Flu tumor (% injected dose/gram)

[[record]]
compound = "O=C(O)CC[C@H](NC(=O)N[C@@H](CCC(=O)NCCc1ccc([125I])cc1)C(=O)O)C(=O)O [[^125I]HS-549]"
recorded_number = 2.2

[[record]]
compound = "O=C([O-])CN1CCN(CC(=O)[O-])CCN(CC(=O)NCCCCC(=O)N(CCCC[C@H](NC(=O)N[C@@H](CCC(=O)O)C(=O)O)C(=O)O)Cc2ccc([211At])cc2)CCN(CC(=O)[O-])CC1.[Lu+3] [[^211At]VK-02-90-Lu]"
recorded_number = 0.4

[[record]]
compound = "O=C(O)CC[C@H](NC(=O)N[C@@H](CCCCN(Cc1ccc([125I])cc1)C(=O)CCCCNC(=O)CN1CCN(CC(=O)O)CCN(CC(=O)O)CCN(CC(=O)O)CC1)C(=O)O)C(=O)O [[^125I]VK-02-90]"
recorded_number = 1.4

[[record]]
compound = "O=C([O-])CN1CCN(CC(=O)[O-])CCN(CC(=O)NCCCCC(=O)N(CCCC[C@H](NC(=O)N[C@@H](CCC(=O)O)C(=O)O)C(=O)O)Cc2ccc([125I])cc2)CCN(CC(=O)[O-])CC1.[Lu+3] [[^125I]VK-02-90-Lu]"
recorded_number = 1.0


###

The entries below are paired with their reported Biodistribution: Blood.
tested on: PSMA+ PC-3 PiP and PSMA− PC-3 flu tumors; details: 4 h; No CI
MEASURED QUANTITY: Biodistribution: Blood (% injected dose/gram)

[[record]]
compound = "O=C([O-])CN1CCN(CC(=O)[O-])CCN(CC(=O)NCCCCC(=O)N(CCCC[C@H](NC(=O)N[C@@H](CCC(=O)O)C(=O)O)C(=O)O)Cc2ccc([211At])cc2)CCN(CC(=O)[O-])CC1.[Lu+3] [[^211At]VK-02-90-Lu]"
recorded_number = 0.1

[[record]]
compound = "O=C(O)CC[C@H](NC(=O)N[C@@H](CCCCN(Cc1ccc([125I])cc1)C(=O)CCCCNC(=O)CN1CCN(CC(=O)O)CCN(CC(=O)O)CCN(CC(=O)O)CC1)C(=O)O)C(=O)O [[^125I]VK-02-90]"
recorded_number = 0.2

[[record]]
compound = "O=C(O)CC[C@H](NC(=O)N[C@@H](CCC(=O)NCCc1ccc([125I])cc1)C(=O)O)C(=O)O [[^125I]HS-549]"
recorded_number = 2.9

[[record]]
compound = "O=C([O-])CN1CCN(CC(=O)[O-])CCN(CC(=O)NCCCCC(=O)N(CCCC[C@H](NC(=O)N[C@@H](CCC(=O)O)C(=O)O)C(=O)O)Cc2ccc([125I])cc2)CCN(CC(=O)[O-])CC1.[Lu+3] [[^125I]VK-02-90-Lu]"
recorded_number = 0.3


###

Measured Biodistribution: stomach, listed per entry.
tested on: PSMA+ PC-3 PiP and PSMA− PC-3 flu tumors; details: 1 h; No CI
MEASURED QUANTITY: Biodistribution: stomach (% injected dose/gram)

[[record]]
compound = "O=C(O)CC[C@H](NC(=O)N[C@@H](CCCCN(Cc1ccc([125I])cc1)C(=O)CCCCNC(=O)CN1CCN(CC(=O)O)CCN(CC(=O)O)CCN(CC(=O)O)CC1)C(=O)O)C(=O)O [[^125I]VK-02-90]"
experimental_target = "PSMA+ PC-3 PiP and PSMA− PC-3 flu tumors"
recorded_number = 1.1

[[record]]
compound = "O=C(O)CC[C@H](NC(=O)N[C@@H](CCC(=O)NCCc1ccc([125I])cc1)C(=O)O)C(=O)O [[^125I]HS-549]"
experimental_target = "PSMA+ PC-3 PiP and PSMA− PC-3 flu tumors"
recorded_number = 0.9

[[record]]
compound = "O=C([O-])CN1CCN(CC(=O)[O-])CCN(CC(=O)NCCCCC(=O)N(CCCC[C@H](NC(=O)N[C@@H](CCC(=O)O)C(=O)O)C(=O)O)Cc2ccc([125I])cc2)CCN(CC(=O)[O-])CC1.[Lu+3] [[^125I]VK-02-90-Lu]"
experimental_target = "PSMA+ PC-3 PiP and PSMA− PC-3 flu tumors"
recorded_number = 1.7

[[record]]
compound = "O=C([O-])CN1CCN(CC(=O)[O-])CCN(CC(=O)NCCCCC(=O)N(CCCC[C@H](NC(=O)N[C@@H](CCC(=O)O)C(=O)O)C(=O)O)Cc2ccc([211At])cc2)CCN(CC(=O)[O-])CC1.[Lu+3] [[^211At]VK-02-90-Lu]"
experimental_target = "PSMA+ PC-3 PiP and PSMA− PC-3 flu tumors"
recorded_number = 0.4


###

system: PSMA+ PC-3 PiP and PSMA− PC-3 flu tumors; settings: 1 h; No CI
Quick reference: Biodistribution: kidneys of the listed items.
MEASURED QUANTITY: Biodistribution: kidneys (% injected dose/gram)

[[record]]
compound = "O=C([O-])CN1CCN(CC(=O)[O-])CCN(CC(=O)NCCCCC(=O)N(CCCC[C@H](NC(=O)N[C@@H](CCC(=O)O)C(=O)O)C(=O)O)Cc2ccc([211At])cc2)CCN(CC(=O)[O-])CC1.[Lu+3] [[^211At]VK-02-90-Lu]"
unit_string = "% injected dose/gram"
recorded_number = 90

[[record]]
compound = "O=C(O)CC[C@H](NC(=O)N[C@@H](CCCCN(Cc1ccc([125I])cc1)C(=O)CCCCNC(=O)CN1CCN(CC(=O)O)CCN(CC(=O)O)CCN(CC(=O)O)CC1)C(=O)O)C(=O)O [[^125I]VK-02-90]"
unit_string = "% injected dose/gram"
recorded_number = 194

[[record]]
compound = "O=C(O)CC[C@H](NC(=O)N[C@@H](CCC(=O)NCCc1ccc([125I])cc1)C(=O)O)C(=O)O [[^125I]HS-549]"
unit_string = "% injected dose/gram"
recorded_number = 106

[[record]]
compound = "O=C([O-])CN1CCN(CC(=O)[O-])CCN(CC(=O)NCCCCC(=O)N(CCCC[C@H](NC(=O)N[C@@H](CCC(=O)O)C(=O)O)C(=O)O)Cc2ccc([125I])cc2)CCN(CC(=O)[O-])CC1.[Lu+3] [[^125I]VK-02-90-Lu]"
unit_string = "% injected dose/gram"
recorded_number = 129


###

Each entry below carries its reported Biodistribution: stomach.
tested on: PSMA+ PC-3 PiP and PSMA− PC-3 flu tumors; details: 1 h; co-injection 0.5 nmole YC-I-27
MEASURED QUANTITY: Biodistribution: stomach (% injected dose/gram)

[[record]]
molecule = "O=C(O)CC[C@H](NC(=O)N[C@@H](CCC(=O)NCCc1ccc([125I])cc1)C(=O)O)C(=O)O [[^125I]HS-549]"
experimental_target = "PSMA+ PC-3 PiP and PSMA− PC-3 flu tumors"
measured_quantity = "Biodistribution: stomach"
unit_string = "% injected dose/gram"
recorded_number = 0.8

[[record]]
molecule = "O=C([O-])CN1CCN(CC(=O)[O-])CCN(CC(=O)NCCCCC(=O)N(CCCC[C@H](NC(=O)N[C@@H](CCC(=O)O)C(=O)O)C(=O)O)Cc2ccc([125I])cc2)CCN(CC(=O)[O-])CC1.[Lu+3] [[^125I]VK-02-90-Lu]"
experimental_target = "PSMA+ PC-3 PiP and PSMA− PC-3 flu tumors"
measured_quantity = "Biodistribution: stomach"
unit_string = "% injected dose/gram"
recorded_number = 1.8

[[record]]
molecule = "O=C([O-])CN1CCN(CC(=O)[O-])CCN(CC(=O)NCCCCC(=O)N(CCCC[C@H](NC(=O)N[C@@H](CCC(=O)O)C(=O)O)C(=O)O)Cc2ccc([211At])cc2)CCN(CC(=O)[O-])CC1.[Lu+3] [[^211At]VK-02-90-Lu]"
experimental_target = "PSMA+ PC-3 PiP and PSMA− PC-3 flu tumors"
measured_quantity = "Biodistribution: stomach"
unit_string = "% injected dose/gram"
recorded_number = 0.4

[[record]]
molecule = "O=C(O)CC[C@H](NC(=O)N[C@@H](CCCCN(Cc1ccc([125I])cc1)C(=O)CCCCNC(=O)CN1CCN(CC(=O)O)CCN(CC(=O)O)CCN(CC(=O)O)CC1)C(=O)O)C(=O)O [[^125I]VK-02-90]"
experimental_target = "PSMA+ PC-3 PiP and PSMA− PC-3 flu tumors"
measured_quantity = "Biodistribution: stomach"
unit_string = "% injected dose/gram"
recorded_number = 0.33

